- target.desc: Lecithin retinol acyltransferase (Bos taurus) (UniProt Q9BGL2);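 also: bovine retinal pigment epithelium microsomes given retinol plus palmitoyl-CoA, 5 min reaction, ester formation read by HPLC, inhibition expressed versus untreated control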
- Sequence (Q9BGL2 whole entry): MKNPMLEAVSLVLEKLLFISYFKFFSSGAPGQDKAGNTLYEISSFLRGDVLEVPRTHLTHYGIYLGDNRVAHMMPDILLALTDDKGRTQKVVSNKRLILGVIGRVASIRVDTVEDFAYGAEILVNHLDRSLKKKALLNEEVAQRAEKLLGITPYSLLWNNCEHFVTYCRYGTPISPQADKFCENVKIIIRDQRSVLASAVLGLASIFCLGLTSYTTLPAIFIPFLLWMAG
- measurement.context: at 100 µM
- Description: Inhibition of LRAT in bovine RPE microsomes at 100 uM using retinol substrate in presence of Palmitoyl-CoA incubated for 5 mins by HPLC analysis relative to control
inhibition of 30% or higher: YES. Under 30%: NO.

Request: Check if inhibition >= 30% (inclusive). Item: CCCCCCCCCCCC(=O)NCCO
Response: YES

Request: Decide: inhibition of CCCCC/C=C\C/C=C\CCCCCCCC(=O)NC(C)c1ccccc1 (stereo not drawn) >= 30%?
Response: YES

Request: Form field: inhibition at least 30%? Entry: C/C=C\C(=O)C1C(C)=CCCC1(C)C (stereo not drawn)
Response: YES

Request: I'd appreciate it if you could say whether CCN(CC)CC(=O)Nc1c(C)cccc1C has inhibition at least equal to 30%.
Response: NO

Request: Quick check: does CC1=CCCC(C)(C)C1/C=C/C(=O)CC(C)C (stereo not drawn) have inhibition greater than or equal to 30%?
Response: YES

Request: Does CC1=CC(C)C(CO)C(C)C1 (stereo not drawn) have a reported inhibition of at least 30%?
Response: NO

Request: Reported inhibition at or above 30%? CCCCCCCCCCCCCC(=O)N(C)CC(=O)O
Response: NO

Request: Hi, just wondering whether CC(C)=CCCC(C)=CCCC(C)=CCO shows inhibition of 30% or higher.
Response: YES
